Provide the recorded AST for the entries that follow.
Species: Rattus norvegicus
experiment_notes: Open TG-GATES - Regimen: Single
Type: toxicity, organism-based, Sprague-Dawley
Set-up: regimen Single, gender Male, age 6 weeks
details: in vivo, po, 0 mg/kg, 6 h, tissue Plasma, route gavage, dose level Control
Please don't drop the unit; write it after the number.

[[record]]
molecule = "CN1C(C(=O)Nc2ccccn2)=C(O)c2sc(Cl)cc2S1(=O)=O [LORNOXICAM]"
value_measured = "68.8 IU/L"

[[record]]
molecule = "C#C[C@]1(O)CC[C@H]2[C@@H]3CCC4=Cc5oncc5C[C@]4(C)[C@H]3CC[C@@]21C [DANAZOL]"
value_measured = "73.4 IU/L"

[[record]]
molecule = "CN(C)[C@@H]1C(O)=C(C(N)=O)C(=O)[C@@]2(O)C(O)=C3C(=O)c4c(O)cccc4[C@@](C)(O)[C@H]3C[C@@H]12 [TETRACYCLINE]"
value_measured = "68.8 IU/L"

[[record]]
molecule = "Cc1cccc(Nc2ccccc2C(=O)O)c1C [MEFENAMIC ACID]"
value_measured = "65.4 IU/L"

[[record]]
molecule = "CC(CN1c2ccccc2Sc2ccccc21)N(C)C (stereo unspecified) [PROMETHAZINE]"
value_measured = "76.2 IU/L"


Attention now turns to another entry.
Challenge: For the molecule shown here, `CCOC(=O)[C@H](CCc1ccccc1)N[C@@H](C)C(=O)N1CCC[C@H]1C(=O)O` , give the reported AST.
Response given: 65.6 IU/L

* * *

Species: Rattus norvegicus
experiment_notes: Open TG-GATES - Regimen: Daily Repeat
Assay type: toxicity, organism-based, Sprague-Dawley
Parameters: regimen Daily Repeat, gender Male, age 6 weeks
details: in vivo, po, 0 mg/kg, […], tissue Liver, route gavage, dose level Control, time 28 day
metric: LIVER
# answer = value followed by unit

Would you please look over these solved cases?
[[record]]
compound = "CN1C(C(=O)Nc2ccccn2)=C(O)c2sc(Cl)cc2S1(=O)=O"
value_measured = "14.4 g"

[[record]]
compound = "C1CCC(C(CC2CCCCN2)C2CCCCC2)CC1 (centres undefined)"
value_measured = "12.9 g"

[[record]]
compound = "Cc1cccc(Nc2ccccc2C(=O)O)c1C"
value_measured = "17.3 g"

[[record]]
compound = "CCOC(=O)[C@H](CCc1ccccc1)N[C@@H](C)C(=O)N1CCC[C@H]1C(=O)O"
value_measured = "16.1 g"

[[record]]
compound = "CC(CN1c2ccccc2Sc2ccccc21)N(C)C (centres undefined)"
value_measured = "16.9 g"

[[record]]
compound = "Clc1c(Cl)c(Cl)c(Cl)c(Cl)c1Cl"
value_measured = "18.2 g"

[[record]]
compound = "CN(C)[C@@H]1C(O)=C(C(N)=O)C(=O)[C@@]2(O)C(O)=C3C(=O)c4c(O)cccc4[C@@](C)(O)[C@H]3C[C@@H]12"
value_measured = "16 g"

[[record]]
compound = "C#C[C@]1(O)CC[C@H]2[C@@H]3CCC4=Cc5oncc5C[C@]4(C)[C@H]3CC[C@@]21C"
value_measured = "15.8 g"


Proceed to the following item.
Challenge: Tell me the measured LIVER of `O=C(O)Cc1ccccc1Nc1c(Cl)cccc1Cl` , please.
Response given: 15.7 g

* * *

Species on record: Rattus norvegicus
experiment_notes: Open TG-GATES - Regimen: Daily Repeat
Type: toxicity, organism-based, Sprague-Dawley
Design: regimen Daily Repeat, gender Male, age 6 weeks
details: in vivo, po, 0 mg/kg, […], tissue Blood, route gavage, dose level Control, time 14 day
I'd be grateful if you could share measured Hb for these entries.
Give bare numbers, in g/dL.

Some solved entries appear below for comparison.
[[record]]
compound = "C#C[C@]1(O)CC[C@H]2[C@@H]3CCC4=Cc5oncc5C[C@]4(C)[C@H]3CC[C@@]21C"
reading_unit = "g/dL"
value_measured = 14.5

[[record]]
compound = "CC(CN1c2ccccc2Sc2ccccc21)N(C)C (stereo not drawn)"
reading_unit = "g/dL"
value_measured = 14.1


# batch size: 4; output Hb per entry
1. CCOC(=O)[C@H](CCc1ccccc1)N[C@@H](C)C(=O)N1CCC[C@H]1C(=O)O
2. CN1C(C(=O)Nc2ccccn2)=C(O)c2sc(Cl)cc2S1(=O)=O
3. Cc1cccc(Nc2ccccc2C(=O)O)c1C
4. CN(C)[C@@H]1C(O)=C(C(N)=O)C(=O)[C@@]2(O)C(O)=C3C(=O)c4c(O)cccc4[C@@](C)(O)[C@H]3C[C@@H]12

Response given:
[13.9, 14, 14.3, 13.9]

Batch lookup, Hb per entry.
1. Clc1c(Cl)c(Cl)c(Cl)c(Cl)c1Cl
2. C1CCC(C(CC2CCCCN2)C2CCCCC2)CC1 (stereo not drawn)

Response given:
1: 14.4; 2: 15

* * *

Species on record: Rattus norvegicus
experiment_notes: Open TG-GATES - Regimen: Daily Repeat
Format: toxicity, organism-based, Sprague-Dawley
Set-up: regimen Daily Repeat, gender Male, age 6 weeks
details: in vivo, po, 0 mg/kg, 72 h, tissue Plasma, route gavage, dose level Control, time 3 day
metric: Na
Kindly report the value followed by its unit.

[[record]]
compound = "CCOC(=O)[C@H](CCc1ccccc1)N[C@@H](C)C(=O)N1CCC[C@H]1C(=O)O"
value_measured = "141.4 meq/L"

[[record]]
compound = "CN(C)[C@@H]1C(O)=C(C(N)=O)C(=O)[C@@]2(O)C(O)=C3C(=O)c4c(O)cccc4[C@@](C)(O)[C@H]3C[C@@H]12"
value_measured = "140.2 meq/L"

[[record]]
compound = "C1CCC(C(CC2CCCCN2)C2CCCCC2)CC1 (centres undefined)"
value_measured = "143.2 meq/L"


# input for lookup
Challenge: What value of measured Na is listed for `CN1C(C(=O)Nc2ccccn2)=C(O)c2sc(Cl)cc2S1(=O)=O` ?
Response given: 141.6 meq/L

* * *

Species on record: Rattus norvegicus
experiment_notes: Open TG-GATES - Regimen: Single
Format: toxicity, organism-based, Sprague-Dawley
Set-up: regimen Single, gender Male, age 6 weeks
details: in vivo, po, 0 mg/kg, 3 h, tissue Blood, route gavage, dose level Control
metric: Mono (%)
Numbers only, in %.

Please state, for each entry, its recorded Mono.
1. CCOC(=O)[C@H](CCc1ccccc1)N[C@@H](C)C(=O)N1CCC[C@H]1C(=O)O
2. CC(=O)Nc1nnc(S(N)(=O)=O)s1 [ACETAZOLAMIDE]
3. C1CCC(C(CC2CCCCN2)C2CCCCC2)CC1 (stereo not given)
4. Cc1cccc(Nc2ccccc2C(=O)O)c1C

Response given:
1: 8.2; 2: 2.4; 3: 1.4; 4: 2.4

* * *

Task for the reader: assign each of the following compounds its reported PT.
Organism: Rattus norvegicus
experiment_notes: Open TG-GATES - Regimen: Single
Type: toxicity, organism-based, Sprague-Dawley
Design: regimen Single, gender Male, age 6 weeks
details: in vivo, po, 0 mg/kg, 6 h, tissue Blood, route gavage, dose level Control
Answers are plain numbers, in s.

Some compounds with recorded PT:
[[record]]
compound = "CC(=O)Nc1nnc(S(N)(=O)=O)s1 [ACETAZOLAMIDE]"
metric = "PT"
reading_unit = "s"
value_measured = 16.5

[[record]]
compound = "C1CCC(C(CC2CCCCN2)C2CCCCC2)CC1 (stereo not given) [PERHEXILINE]"
metric = "PT"
reading_unit = "s"
value_measured = 15.7

[[record]]
compound = "CN(C)[C@@H]1C(O)=C(C(N)=O)C(=O)[C@@]2(O)C(O)=C3C(=O)c4c(O)cccc4[C@@](C)(O)[C@H]3C[C@@H]12 [TETRACYCLINE]"
metric = "PT"
reading_unit = "s"
value_measured = 12.3

[[record]]
compound = "Clc1c(Cl)c(Cl)c(Cl)c(Cl)c1Cl [PERCHLOROBENZENE]"
metric = "PT"
reading_unit = "s"
value_measured = 11.7

[[record]]
compound = "CN1C(C(=O)Nc2ccccn2)=C(O)c2sc(Cl)cc2S1(=O)=O [LORNOXICAM]"
metric = "PT"
reading_unit = "s"
value_measured = 12


Look up PT for the entries below, preserving their order.
1. Cc1cccc(Nc2ccccc2C(=O)O)c1C [MEFENAMIC ACID]
2. C#C[C@]1(O)CC[C@H]2[C@@H]3CCC4=Cc5oncc5C[C@]4(C)[C@H]3CC[C@@]21C [DANAZOL]
3. COc1cc([C@@H]2c3cc4c(cc3[C@@H](O[C@@H]3O[C@@H]5CO[C@@H](C)O[C@H]5[C@H](O)[C@H]3O)[C@H]3COC(=O)[C@H]23)OCO4)cc(OC)c1O [ETOPOSIDE]
4. CCOC(=O)[C@H](CCc1ccccc1)N[C@@H](C)C(=O)N1CCC[C@H]1C(=O)O

Response given:
1. 13
2. 16.1
3. 11.9
4. 12.2

Challenge: Can you share its PT? I mean this compound: CC(CN1c2ccccc2Sc2ccccc21)N(C)C (stereo not given) [PROMETHAZINE]
Response given: 16.7
